The measured values listed here are drawn from the supplement of paper PMC10307832.

Please provide measured relative viability for the entries that follow.
Tested on: NCI-H2087
Experiment: relative viability (nuclei count vs DMSO), 5 days (fraction); higher = more cells survive
Details: first compound 50 µM

For reference, reported relative viability for O=C(O)CCCCC(CCSCc1ccccc1)SCc1ccccc1 (centres undefined) [CPI-613] + CC1(C)CCC(c2ccc(Cl)cc2)=C(CN2CCN(c3ccc(C(=O)NS(=O)(=O)c4ccc(N[C@H](CCN5CCOCC5)CSc5ccccc5)c(S(=O)(=O)C(F)(F)F)c4)cc3)CC2)C1 [Navitoclax] (partner 0.5 µM) stands at 0.926

// O=C(O)CCCCC(CCSCc1ccccc1)SCc1ccccc1 (centres undefined) [CPI-613] + Cc1nc(Nc2ncc(C(=O)Nc3c(C)cccc3Cl)s2)cc(N2CCN(CCO)CC2)n1 [Dasatinib] (partner 0.075 µM) : relative viability value = 0.792

For O=C(O)CCCCC(CCSCc1ccccc1)SCc1ccccc1 (centres undefined) [CPI-613] + CC(=O)Nc1cccc(-n2c(=O)n(C3CC3)c(=O)c3c(Nc4ccc(I)cc4F)n(C)c(=O)c(C)c32)c1 [Trametinib] (partner 0.02 µM) the molecule record lists relative viability as 0.159

Value of relative viability reported for the molecule O=C(O)CCCCC(CCSCc1ccccc1)SCc1ccccc1 (centres undefined) [CPI-613] + O=C(c1cc(Cc2n[nH]c(=O)c3ccccc23)ccc1F)N1CCN(C(=O)C2CC2)CC1 [Olaparib] (partner 8 µM) is 0.627

Entry O=C(O)CCCCC(CCSCc1ccccc1)SCc1ccccc1 (centres undefined) [CPI-613] + C[C@@H](Oc1cc(-c2cnn(C3CCNCC3)c2)cnc1N)c1c(Cl)ccc(F)c1Cl [Crizotinib] (partner 1 µM) , relative viability reported as 0.706

# relative viability of O=C(O)CCCCC(CCSCc1ccccc1)SCc1ccccc1 (centres undefined) [CPI-613] + O=C(CCCCCCC(=O)Nc1ccccc1)NO [Vorinostat] (partner 1 µM) = 0.689

Given item O=C(O)CCCCC(CCSCc1ccccc1)SCc1ccccc1 (centres undefined) [CPI-613] + Nc1nc2[nH]cc(CCc3ccc(C(=O)N[C@@H](CCC(=O)O)C(=O)O)cc3)c2c(=O)[nH]1 [Pemetrexed] (partner 0.2 µM) , the value recorded as its relative viability is 0.689

Value of relative viability reported for the molecule O=C(O)CCCCC(CCSCc1ccccc1)SCc1ccccc1 (centres undefined) [CPI-613] + CS(=O)(=O)CCNCc1ccc(-c2ccc3ncnc(Nc4ccc(OCc5cccc(F)c5)c(Cl)c4)c3c2)o1 [Lapatinib] (partner 2 µM) is 0.72

Field relative viability (entry O=C(O)CCCCC(CCSCc1ccccc1)SCc1ccccc1 (centres undefined) [CPI-613] + Cc1nc(NC(=O)N2CCC[C@H]2C(N)=O)sc1-c1ccnc(C(C)(C)C(F)(F)F)c1 [Alpelisib] (partner 2 µM) ) reads 0.95
